# cond: buffer; pH 7.4; 200.0 µM
Parameter threshold = 10 µg/mL. Response is t when solubility kinetic meets or exceeds it, else f.

Use the examples below as a reference point.
>>> class_assignment("O=C(Nc1cc(S(=O)(=O)N2CCOCC2)ccc1N1CCOCC1)c1ccccc1[N+](=O)[O-]")
"t"
>>> class_assignment("CC(=O)Nc1cccc2c1Cc1ccccc1-2")
"t"
>>> class_assignment("O=C(CSc1nc2ncc(Cl)cc2[nH]1)N1CCC(Cc2ccccc2)CC1")
"f"

Evaluate O=S1(=O)CCC(NC(=S)Nc2ccc3ccccc3c2)C1 (stereo unspecified) : solubility kinetic at minimum 10 µg/mL?
t

Query `O=C(Nc1ccc(CN2CCCCC2)cc1)c1cccc(F)c1` next
t

One more compound: `O=C1C(Cl)=C(NCc2cccnc2)C(=O)c2ccccc21`
f

Repeat for the following compound: CN(C)C(=O)C(OC(=O)c1ccc2ccccc2n1)c1ccccc1 (stereo unspecified)
t

Let us now turn to `CCn1c(O)c(C=NCc2ccccc2)sc1=S`
f

Would you mind doing COCC(C)n1c(C)cc(C(=O)COC(=O)c2cnc(Cl)c(Cl)c2)c1C (stereo unspecified) as well?
t

Input `COc1ccccc1C(=O)NCCC(=O)NCc1ccncc1`
t

Another compound to look at: `Cc1ccccc1OCC(=O)OCC(=O)c1ccc[nH]1`
t
